system-tested: T1, KP-4E-Sdc1 peptide
T1 chain: Dansyl-QEEYYA
protocol: fluorescence anisotropy
Ends that are not written are not given here. * marks the point of attachment. Dansyl = CN(C)c1cccc2c(S(=O)(=O)*)cccc12
measure-name: Kd (µM)

binder | measure-name | unit-tag | experimental-result
Tiam1 PDZ (protein) VTQSIHIEKSDTAADTYGFSLSSVEEDGIRRLYVNSVKETGLASKKGLKAGDEILEINNRAADALNSSML | Kd | µM | 40

Source listed as paper PMC4137555.
